# Tested on: UO-31 renal
# test_description: NCI tumour cell line growth inhibition, 48 h; in the data active = GI50 below about 0.43 µM; inactive = the rest
Pick one and only one: true (1) (active), false (0) (inactive)

Use these answered entries as a reference point.
Cc1ccc(C(=O)Nc2ccc(CN3CCN(C)CC3)c(C(F)(F)F)c2)cc1C#Cc1cnc(N)c2ccc(C#N)cc12 = true (1)
Oc1ccccc1/C=N/Nc1nc2ccccc2s1 = false (0)
COc1ccc(Nc2[nH]n(C3=Nc4ccccc4Sc4ccccc43)c(=O)c2C#N)cc1 = false (0)
Cc1cc(N2CCCCC2)nc(NCc2cc(Nc3ccnc4cc(Cl)ccc34)ccc2F)n1 = false (0)
Nc1nc2ccccc2c2[nH]c3ccccc3c12 = false (0)
CS(=O)(=O)c1nccc(-c2c(-c3cccc(OCc4ccccc4)c3)nc3sccn23)n1 = false (0)
CC/C=C\C[C@H](O)C/C=C1/C(=O)C=C[C@@H]1C/C=C\CCCC(=O)OCCS(=O)(=O)c1ccccc1 = false (0)
COc1ccccc1CN=C1NC(=O)/C(=C/c2ccc3ncccc3c2)S1 = false (0)
COc1ccc(-c2c(-c3cc4c(c(OC)c3OC)OCO4)noc2N)cc1 = false (0)
COc1ccc(/C=C(/C(=O)N2CCN(c3ccc(C)cc3)CC2)c2cc(OC)c(OC)c(OC)c2)cc1N = true (1)

*Q* Hey, what did the test say about "O=c1[nH]ccc2nc(N3CCC(O)CC3)nc(Nc3ccc(N4CCOCC4)cc3)c12" ?
*A* true (1)

---

# Tested on: UO-31 renal
# test_description: NCI tumour cell line growth inhibition, 48 h
The following compounds are shown together with reported TGI values.

Here is how some compounds turned out for TGI.
Cc1nc2ccccc2c(=O)n1Nc1ccc(C(=O)O)cc1 = > 100 µM
C=CC1CC12C(=O)C1OC2(C)C2C(=O)c3c(O)cccc3C(=O)C12 (configuration not stated) = > 100 µM

*Q* Quick check: TGI of Cc1cc2nn(C3CCCCO3)nc2cc1C (configuration not stated) ?
*A* > 100 µM

*Q* Would you mind doing CC(C)NC1CCCCC2c3cc(F)ccc3[C@]12O (some centres not stated) as well?
*A* > 100 µM

*Q* Thanks! And O=C1CC(c2ccccc2)NCCCCN2CC(CN1)C(C(O)c1ccccc1)C2=O (configuration not stated) ?
*A* > 100 µM

---

# System: IGROV1 ovarian
# test_description: NCI tumour cell line growth inhibition, 48 h
Form field: TGI (one value per entry).
Field: numeric (µM). Do not append units.

Some solved entries appear below for comparison.
COC(=O)c1c(O)ccc2c1c1cc3ccccc3c(O)c1n2Cc1ccccc1Cl = 44.8
C=C(c1ccc(OC)c(/C=C/C(=O)c2cc(OC)c(OC)c(OC)c2)c1)c1cc(OC)c(OC)c(OC)c1 = 5.88
N=C(N)SC(c1ccccc1)c1ccccc1 = 42.8

Shifting focus to the compound that follows.
*Q* For the compound O=C(CC(O)c1cccnc1)CC(O)c1cccnc1 (stereo not given) , what TGI is on record?
*A* 29.9

---

# Tested on: IGROV1 ovarian
# test_description: NCI tumour cell line growth inhibition, 48 h; in the data active = GI50 below about 0.43 µM; inactive = the rest
Outcomes you can answer with include only these: 1 (active), 0 (inactive)

Please review the following examples before continuing.
COc1ccc(C(=O)OC2C(OC3C(O)COC(O[C@H]4C[C@H]5[C@@H]6CC=C7C[C@@H](O)CC[C@]7(C)[C@H]6CC[C@]5(C)[C@H]4[C@H](C)C(=O)CCC(C)C)C3OC(=O)C(C)C)OCC(O)C2O)cc1 (stereo partly drawn) = 1
COc1ccc(-c2c(-c3cc4c(c(OC)c3OC)OCO4)noc2N)cc1 = 0
Nc1nc2ccccc2c2[nH]c3ccccc3c12 = 0
COc1cc(-c2nn(-c3ccc(NC(=O)Nc4ccc(Cl)c(C(F)(F)F)c4)cc3)cc2-c2ccncc2)ccc1Cl = 0
CC[C@@]1(O)C(=O)OCc2c1cc1n(c2=O)Cc2cc3c([N+](=O)[O-])c(O)ccc3nc2-1 = 0

*Q* For "C[C@@]1([C@H](OC(=O)c2cccc3ccccc23)C(N)=O)CO1" , what call appears in the results of this test?
*A* 0

*Q* Repeat for the following molecule: "COc1ccc(/C=C(/C(=O)N2CCN(c3ccc(C)cc3)CC2)c2cc(OC)c(OC)c(OC)c2)cc1N"
*A* 1

*Q* Then this molecule: "COc1ccc2c(c1)O/C(=C\c1ccc([N+](=O)[O-])o1)C2=O"
*A* 0

*Q* Same thing, different molecule: "Nc1c(C(=O)c2cccc(C(O)(CO)CO)c2)cnn1-c1ccc(F)cc1"
*A* 0

---

# Tested on: OVCAR-8 ovarian
# test_description: NCI tumour cell line growth inhibition, 48 h
parameter_measured: TGI (µM)
Numeric only. Scale: µM

Cc1nc2ccc(F)cc2c2c1CCN2c1ccccc1 = 44.6

Please find the next compound below.
*Q* What does the record list as TGI for "C=C(c1ccc(OC)c(/C=C/C(=O)c2cc(OC)c(OC)c(OC)c2)c1)c1cc(OC)c(OC)c(OC)c1" ?
*A* 11.9

---

# System: SF-295 CNS
# test_description: NCI tumour cell line growth inhibition, 48 h
Catalogue of compounds with associated TGI

Use the examples below as a reference point.
CC(C)NC1CCCCC2c3cc(F)ccc3[C@]12O (some centres undefined) = > 100 µM
C=C(C)[C@@H]1CC[C@]2(C(=O)N3CCN(C)CC3)CC[C@]3(C)[C@H](CC[C@@H]4[C@@]5(C)C/C(=C/c6ccncc6)[C@H](O)C(C)(C)[C@@H]5CC[C@]43C)[C@@H]12 = 25.5 µM
Nc1cc(N2CCOCC2)nc(=O)n1-c1ccccc1 = > 100 µM

// switching to the query compound
*Q* Could you tell me which TGI is on file for "O=c1oc2cc(O)ccc2c(O)c1C(c1ccc2ccccc2c1)c1c(O)c2ccc(O)cc2oc1=O" ?
*A* > 100 µM

---

# Test system: SF-539 CNS
# test_description: NCI tumour cell line growth inhibition, 48 h
parameter_measured: TGI

c1cc2c(cc1NC1=NCCO1)CCCC2 = 6.25 µM

*Q* Form field - read-out: TGI; system: SF-539 CNS; submitted item: "C#CCn1c(=O)c(I)cn(/C(=C\C(=O)OCC)C(=O)OCC)c1=O"
*A* 33.4 µM

*Q* Check COC(=O)C12OCC34C(CC5C(C)C6=CC(=O)OC6=CC5(C)C3C(O)C1O)OC(=O)C(OC(C)=O)C24 (stereo not given) too.
*A* 34 µM

*Q* Now consider "COc1ccc2c(c1)[n+]([O-])c(/C(C)=N/NC(N)=S)c(C)[n+]2[O-]" .
*A* 97.9 µM

*Q* Try this compound too: "COc1cc(C(=O)O)cc2c1[nH]c1ccccc12"
*A* > 25 µM

---

# Test system: U251 CNS
# test_description: NCI tumour cell line growth inhibition, 48 h
parameter_measured: TGI

*Q* Missing value: TGI, U251 CNS, entry "Cc1cccc(NC(N)=S)c1" . Fill in?
*A* > 100 µM

*Q* Queued: "O=C(O)COc1cc(-c2ccccc2F)nc2cc3c(cc12)OCO3"
*A* > 100 µM

*Q* What do you get for "CC/C=C\C[C@H](O)C/C=C1/C(=O)C=C[C@@H]1C/C=C\CCCC(=O)OCCS(=O)(=O)c1ccccc1" ?
*A* 12.5 µM

*Q* // query: CC(SC(=S)N(C)C)C(=O)Nc1nnc(-c2ccc(Cl)cc2)o1 (stereo not drawn)
*A* > 100 µM

---

# System: NCI-H522 lung
# test_description: NCI tumour cell line growth inhibition, 48 h; in the data active = GI50 below about 0.43 µM; inactive = the rest
Can you answer with just one of these options? label 1 (active), label 0 (inactive)

# count of solved cases: 2
O=c1ncc(I)c[nH]1 = label 0
Nc1c(C(=O)c2cccc(C(O)(CO)CO)c2)cnn1-c1ccc(F)cc1 = label 0

*Q* How did this test come out for "COc1ccc(-c2cnc(SCC(=O)c3c(C)n(C)n(-c4ccccc4)c3=O)n2-c2ccc(OC)cc2)cc1" ?
*A* label 0

*Q* Cool, now "CC(C)C[C@H](NC(=O)[C@H](Cc1ccccc1)NC(=O)c1cnccn1)B(O)O"
*A* label 1

*Q* What do you get for "COc1ccccc1CN=C1NC(=O)/C(=C/c2ccc3ncccc3c2)S1" ?
*A* label 0

*Q* Next molecule: "C[C@]12CC/C(=N\O)C[C@@H]1CC[C@@H]1[C@@H]2CC[C@]2(C)/C(=N/O)CC[C@@H]12"
*A* label 0

---

# Test system: MDA-MB-231 breast
# test_description: NCI tumour cell line growth inhibition, 48 h; in the data active = GI50 below about 0.43 µM; inactive = the rest
Your reply should match one of these outcome classes. active, inactive

These recorded examples may help you get a feel for the data.
Cc1cc(C)nc(NS(=O)(=O)c2ccc(Nc3nc4nc(NCc5ccccc5)nc(-c5ccc(O)cc5)c4c(=O)[nH]3)cc2)n1 = inactive
C=CC1CC12C(=O)C1OC2(C)C2C(=O)c3c(O)cccc3C(=O)C12 (configuration not stated) = inactive

*Q* Hi team, can someone confirm the assay call for "O=C1C2=C(C(=O)c3c(O)ccc(O)c31)N(c1cccnc1)Cc1ccccc1O2" ?
*A* active

*Q* Entry "CS(=O)(=O)c1nccc(-c2c(-c3cccc(OCc4ccccc4)c3)nc3sccn23)n1" please
*A* inactive

*Q* Follow-up item: "CCCCCCCC(=O)SCC/C=C/[C@@H]1CC(=O)NCc2cccc(n2)C2=N[C@@](C)(CS2)C(=O)N[C@@H](C(C)C)C(=O)O1"
*A* active

*Q* Moving on to "O=c1ncc(I)c[nH]1"
*A* inactive

*Q* Now this one: "Cc1ccccc1NC(=O)N/C(N)=N/c1nc(C)c(C)s1"
*A* inactive
